Each entry below carries its recorded cAMP generation (EC50), Alpha screen.
target.system: T1, human VPAC2 receptor (human), P41587
T1 chain: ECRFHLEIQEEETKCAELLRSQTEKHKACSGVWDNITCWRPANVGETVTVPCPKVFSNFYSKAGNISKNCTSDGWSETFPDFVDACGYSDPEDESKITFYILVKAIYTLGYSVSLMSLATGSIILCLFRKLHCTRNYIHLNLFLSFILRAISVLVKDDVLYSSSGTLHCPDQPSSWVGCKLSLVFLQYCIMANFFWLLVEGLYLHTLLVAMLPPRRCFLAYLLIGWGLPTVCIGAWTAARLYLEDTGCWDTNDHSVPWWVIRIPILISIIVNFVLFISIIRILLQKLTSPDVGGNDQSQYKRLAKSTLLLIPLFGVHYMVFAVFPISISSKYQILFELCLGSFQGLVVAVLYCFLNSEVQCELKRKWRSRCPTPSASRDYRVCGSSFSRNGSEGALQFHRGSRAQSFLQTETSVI
assay.summary: cell-based or functional assay

binder: HSDAVFTDNYTRLRRQVAARKYLQSIRNGGPSSGAPPPS (modifications not checked) [P247]
cAMP generation (EC50), Alpha screen, nM: 133

binder: HSDAVFTDNYTRLRKQVAAKKYLQSIKNKRYGGPSSGAPPPC (modifications not checked) [P137]
cAMP generation (EC50), Alpha screen, nM: 8.31

binder: HSDAVFTDNYTRLRRQVAAKRYLQSIRNGGPSSGAPPPS (modifications not checked) [P219]
cAMP generation (EC50), Alpha screen, nM: 25.5

binder: HSDAVFTDNYTRLRKQVAARRYLQSIRNGGPSSGAPPPS (modifications not checked) [P245]
cAMP generation (EC50), Alpha screen, nM: 450
